Ref: ChEMBL document CHEMBL5356951

# MIC listing for each entry below
tested on: Escherichia coli; assay: Antibacterial activity against Escherichia coli ATCC 25922 assessed as bacterial growth inhibition by broth microdilution assay; assay type: functional
Quick reminder: number only, in µg/mL, skip the unit.

CC(C)C[C@@H]1NC(=O)[C@@H](Cc2ccccc2)NC(=O)[C@H](CCN)NC(=O)[C@@H](NC(=O)[C@@H](CO)NC(=O)[C@@H](NC(=O)[C@H](N)CSSCCC2CCCCC2)[C@@H](C)O)CCNC(=O)[C@H]([C@@H](C)O)NC(=O)[C@H](CCN)NC(=O)[C@H](CCN)NC1=O: 2

Asked: Would you mind telling me what MIC value was observed for CC(C)C[C@@H]1NC(=O)[C@@H](Cc2ccccc2)NC(=O)[C@H](CCN)NC(=O)[C@@H](NC(=O)[C@@H](CCN)NC(=O)[C@@H](NC(=O)[C@H](N)CSSCCC2CCCCC2)[C@@H](C)O)CCNC(=O)[C@H]([C@@H](C)O)NC(=O)[C@H](CCN)NC(=O)[C@H](CCN)NC1=O ?
Given back: 2

Asked: Given CC(C)C[C@@H]1NC(=O)[C@@H](Cc2ccccc2)NC(=O)[C@H](CCN)NC(=O)[C@@H](NC(=O)[C@H](CN)NC(=O)[C@@H](NC(=O)[C@H](N)CSSCCC2CCCCC2)[C@@H](C)O)CCNC(=O)[C@H]([C@@H](C)O)NC(=O)[C@H](CCN)NC(=O)[C@H](CCN)NC1=O , state its recorded MIC.
Given back: 1

Asked: Please report the recorded MIC for CC(C)CCSSC[C@@H](N)C(=O)N[C@H](C(=O)N[C@H](CO)C(=O)N[C@H]1CCNC(=O)[C@H]([C@@H](C)O)NC(=O)[C@H](CCN)NC(=O)[C@H](CCN)NC(=O)[C@H](CC(C)C)NC(=O)[C@@H](Cc2ccccc2)NC(=O)[C@H](CCN)NC1=O)[C@@H](C)O .
Given back: 2

Asked: Item under review: CC(C)C[C@@H]1NC(=O)[C@@H](Cc2ccccc2)NC(=O)[C@H](CCN)NC(=O)[C@@H](NC(=O)[C@@H](CN)NC(=O)[C@@H](NC(=O)[C@H](N)CSSCCC2CCCCC2)[C@@H](C)O)CCNC(=O)[C@H]([C@@H](C)O)NC(=O)[C@H](CCN)NC(=O)[C@H](CCN)NC1=O . Reported MIC?
Given back: 2

---

system: Acinetobacter baumannii; assay: Antibacterial activity against Acinetobacter baumannii 2018-006 assessed as bacterial growth inhibition by broth microdilution assay; type: functional
Positions of bridges follow the written chain, without caps; N, C: chain ends. Non-standard residues stand in square brackets, D forms with d. Residues, ends and D or L forms follow the SMILES beside them. *: point of attachment. X1 = CC[C@H](C)CCCCC(=O)*; Dab = NCC[C@H](N)C(=O)O
Reported MIC values for the following compounds.

CC(C)C[C@@H]1NC(=O)[C@@H](Cc2ccccc2)NC(=O)[C@H](CCN)NC(=O)[C@@H](NC(=O)[C@H](CCN)NC(=O)[C@@H](NC(=O)[C@H](N)CSSCCC2CCCCC2)[C@@H](C)O)CCNC(=O)[C@H]([C@@H](C)O)NC(=O)[C@H](CCN)NC(=O)[C@H](CCN)NC1=O: 0.5 µg/mL
CC(C)CCSSC[C@@H](N)C(=O)N[C@H](C(=O)N[C@H](CN)C(=O)N[C@H]1CCNC(=O)[C@H]([C@@H](C)O)NC(=O)[C@H](CCN)NC(=O)[C@H](CCN)NC(=O)[C@H](CC(C)C)NC(=O)[C@@H](Cc2ccccc2)NC(=O)[C@H](CCN)NC1=O)[C@@H](C)O: 0.25 µg/mL

Asked: # MIC lookup, item CC[C@H](C)CCCCC(=O)N[C@@H](CCN)C(=O)N[C@H](C(=O)N[C@@H](CCN)C(=O)N[C@H]1CCNC(=O)[C@H]([C@@H](C)O)NC(=O)[C@H](CCN)NC(=O)[C@H](CCN)NC(=O)[C@H](CC(C)C)NC(=O)[C@@H](Cc2ccccc2)NC(=O)[C@H](CCN)NC1=O)[C@@H](C)O (X1-[Dab]T[Dab][Dab][Dab][dF]L[Dab][Dab]T; lactam 4-C)
Given back: 0.125 µg/mL

Asked: May I ask what MIC has been recorded for CC(C)CCSSC[C@@H](N)C(=O)N[C@H](C(=O)N[C@@H](CCN)C(=O)N[C@H]1CCNC(=O)[C@H]([C@@H](C)O)NC(=O)[C@H](CCN)NC(=O)[C@H](CCN)NC(=O)[C@H](CC(C)C)NC(=O)[C@@H](Cc2ccccc2)NC(=O)[C@H](CCN)NC1=O)[C@@H](C)O ?
Given back: 0.5 µg/mL

Asked: Requested read-out: MIC. Entry: CC(C)CCSSC[C@@H](N)C(=O)N[C@H](C(=O)N[C@@H](CN)C(=O)N[C@H]1CCNC(=O)[C@H]([C@@H](C)O)NC(=O)[C@H](CCN)NC(=O)[C@H](CCN)NC(=O)[C@H](CC(C)C)NC(=O)[C@@H](Cc2ccccc2)NC(=O)[C@H](CCN)NC1=O)[C@@H](C)O
Given back: 0.25 µg/mL

Asked: What does the data say about its MIC? Entry: CC(C)C[C@@H]1NC(=O)[C@@H](Cc2ccccc2)NC(=O)[C@H](CCN)NC(=O)[C@@H](NC(=O)[C@@H](CCN)NC(=O)[C@@H](NC(=O)[C@H](N)CSSCc2cccc(Cl)c2)[C@@H](C)O)CCNC(=O)[C@H]([C@@H](C)O)NC(=O)[C@H](CCN)NC(=O)[C@H](CCN)NC1=O
Given back: 0.5 µg/mL

---

# maps each entry to its MIC
system: Pseudomonas aeruginosa; experiment: Antibacterial activity against Pseudomonas aeruginosa NRZ 08418 assessed as bacterial growth inhibition by broth microdilution assay; format: functional
# value in µg/mL; strip the unit string

Here is how some molecules turned out for MIC.
CC(C)CCSSC[C@@H](N)C(=O)N[C@H](C(=O)N[C@H](CN)C(=O)N[C@H]1CCNC(=O)[C@H]([C@@H](C)O)NC(=O)[C@H](CCN)NC(=O)[C@H](CCN)NC(=O)[C@H](CC(C)C)NC(=O)[C@@H](Cc2ccccc2)NC(=O)[C@H](CCN)NC1=O)[C@@H](C)O: 4
CC(C)C[C@@H]1NC(=O)[C@@H](Cc2ccccc2)NC(=O)[C@H](CCN)NC(=O)[C@@H](NC(=O)[C@@H](CN)NC(=O)[C@@H](NC(=O)[C@H](N)CSSCc2cccc(Cl)c2)[C@@H](C)O)CCNC(=O)[C@H]([C@@H](C)O)NC(=O)[C@H](CCN)NC(=O)[C@H](CCN)NC1=O: 0.5
CC(C)C[C@@H]1NC(=O)[C@@H](Cc2ccccc2)NC(=O)[C@H](CCN)NC(=O)[C@@H](NC(=O)CNC(=O)[C@@H](NC(=O)[C@H](N)CSSCCC2CCCCC2)[C@@H](C)O)CCNC(=O)[C@H]([C@@H](C)O)NC(=O)[C@H](CCN)NC(=O)[C@H](CCN)NC1=O: 2
CC(C)CCSSC[C@@H](N)C(=O)N[C@H](C(=O)N[C@H](CO)C(=O)N[C@H]1CCNC(=O)[C@H]([C@@H](C)O)NC(=O)[C@H](CCN)NC(=O)[C@H](CCN)NC(=O)[C@H](CC(C)C)NC(=O)[C@@H](Cc2ccccc2)NC(=O)[C@H](CCN)NC1=O)[C@@H](C)O: 8

Asked: So what's the measured MIC for this one? CC(C)CCSSC[C@@H](N)C(=O)N[C@H](C(=O)N[C@@H](CN)C(=O)N[C@H]1CCNC(=O)[C@H]([C@@H](C)O)NC(=O)[C@H](CCN)NC(=O)[C@H](CCN)NC(=O)[C@H](CC(C)C)NC(=O)[C@@H](Cc2ccccc2)NC(=O)[C@H](CCN)NC1=O)[C@@H](C)O
Given back: 1

Asked: Recorded MIC for CC(C)C[C@@H]1NC(=O)[C@@H](Cc2ccccc2)NC(=O)[C@H](CCN)NC(=O)[C@@H](NC(=O)[C@H](CN)NC(=O)[C@@H](NC(=O)[C@H](N)CSSCc2cccc(Cl)c2)[C@@H](C)O)CCNC(=O)[C@H]([C@@H](C)O)NC(=O)[C@H](CCN)NC(=O)[C@H](CCN)NC1=O , please?
Given back: 2

Asked: MIC lookup needed for CC(C)C[C@@H]1NC(=O)[C@@H](Cc2ccccc2)NC(=O)[C@H](CCN)NC(=O)[C@@H](NC(=O)CNC(=O)[C@@H](NC(=O)[C@H](N)CSSCc2cccc(Cl)c2)[C@@H](C)O)CCNC(=O)[C@H]([C@@H](C)O)NC(=O)[C@H](CCN)NC(=O)[C@H](CCN)NC1=O , thanks.
Given back: 4

---

system: Acinetobacter baumannii; assay: Antibacterial activity against Acinetobacter baumannii 2018-006 assessed as bacterial growth inhibition by broth microdilution assay; assay type: functional
Reported Property: MIC (µg/mL)
Enter your answer as a number in µg/mL; do not include the unit.

CC(C)C[C@@H]1NC(=O)[C@@H](Cc2ccccc2)NC(=O)[C@H](CCN)NC(=O)[C@@H](NC(=O)[C@@H](CO)NC(=O)[C@@H](NC(=O)[C@H](N)CSSCc2cccc(Cl)c2)[C@@H](C)O)CCNC(=O)[C@H]([C@@H](C)O)NC(=O)[C@H](CCN)NC(=O)[C@H](CCN)NC1=O: 0.5

The record that follows has no MIC shown yet.
Asked: Which MIC value is on record for CC(C)CCSSC[C@@H](N)C(=O)N[C@H](C(=O)N[C@H](CO)C(=O)N[C@H]1CCNC(=O)[C@H]([C@@H](C)O)NC(=O)[C@H](CCN)NC(=O)[C@H](CCN)NC(=O)[C@H](CC(C)C)NC(=O)[C@@H](Cc2ccccc2)NC(=O)[C@H](CCN)NC1=O)[C@@H](C)O ?
Given back: 0.5
